Target: PI3KC2α Δ1-298 (Homo sapiens (Human))
Assay: ADP-Glo kinase assay with purified PI3KC2α Δ1-298
Type: biochemical
Conditions: read-out: IC50 (PI3KC2α; ADP-Glo™ assay)
pIC50: −log10 of the molar value.
measurement name: pIC50

Example entries begin here.
compound	study system	measurement name	recorded result
O=C(CSc1nc2nccnc2c(=O)n1C1CCc2ccccc21)Nc1nccs1 (centres unmarked)	PI3KC2α Δ1-298 (Homo sapiens (Human))	pIC50	5.80
O=c1c2nccnc2nc(SCc2nc3ccccc3[nH]2)n1CCc1ccc(O)cc1	PI3KC2α Δ1-298 (Homo sapiens (Human))	pIC50	7.00
O=C(CSc1nc2ncccc2c(=O)n1CCc1ccccc1)Nc1nccs1	PI3KC2α Δ1-298 (Homo sapiens (Human))	pIC50	6.09
O=C(CSc1nc2nccnc2c(=O)n1CCc1ccccc1)Nc1nc(-c2cccc(O)c2)cs1	PI3KC2α Δ1-298 (Homo sapiens (Human))	pIC50	6.92
NC(=O)c1ccc(-n2c(SCC(=O)Nc3nccs3)nc3nccnc3c2=O)cc1	PI3KC2α Δ1-298 (Homo sapiens (Human))	pIC50	7.29

P = O=C(CSc1nc2nccnc2c(=O)n1CC(F)(F)c1ccccc1)Nc1nccs1
Q = O=C(CSc1nc2nccnc2c(=O)n1Cc1ccco1)Nc1ccccc1F
Hi team, can someone confirm which has the larger pIC50: P or Q ? Thanks. Which one? Tell me its label. P

====

Biological target: PI3KC2α Δ1-298 (Homo sapiens (Human))
Assay: ADP-Glo kinase assay with purified PI3KC2α Δ1-298
Assay type: biochemical
Conditions: read-out: IC50 (PI3KC2α; ADP-Glo™ assay)
pIC50: −log10 of the molar value.
measurement name: pIC50

compound	recorded result
O=c1c2nccnc2nc(SCc2nc3ccccc3s2)n1CCc1ccccc1 [Example Compound 62]	5.40
O=C(CSc1nc2nccnc2c(=O)n1CCc1ccccc1)Nc1nc(-c2ccc3ccccc3c2)cs1 [Example Compound 48]	4.59

A = O=C(CSc1nc2nccnc2c(=O)n1C1CC1c1ccccc1)Nc1nccs1 (stereo not shown) [Example Compound 21]
B = COC(=O)Cc1csc(NC(=O)CSc2nc3nccnc3c(=O)n2CCc2ccccc2)n1 [Example Compound 24]
# min-compare on pIC50 between A and B Which one? Tell me its label. A
(A: 4.92, B: 5.66)

====

Biological target: PI3KC2α Δ1-298 (Homo sapiens (Human))
Assay: ADP-Glo kinase assay with purified PI3KC2α Δ1-298
Type: biochemical
Details: listed as C2a_Inh3; read-out: IC50 for PI3KC2α inhibition
Description: Previous studies have shown that PI3KC2α can utilize phosphatidylinositol (PI) or phosphatidylinositol 4-phosphate [PI(4)P] to produce PI(3)P or PI(3,4)P2 respectively but with a preference for PI(3,4)P2 production. To verify that purified PI3KC2α Δ1-298 is active, a radioactive kinase assay was performed with PI as a substrate and different amounts of purified PI3KC2α Δ1-298. […]
measurement name: pIC50
Scale explanation: pIC50 corresponds to minus log10 of a concentration expressed in moles per litre.

Using the record for O=C(CSc1nc2nccnc2c(=O)n1CCc1ccccc1)Nc1nccs1 , report its pIC50. 7.00

====

Target: PI3KC2α Δ1-298 (Homo sapiens (Human), UniProt O00443)
Sequence (O00443 299-1686): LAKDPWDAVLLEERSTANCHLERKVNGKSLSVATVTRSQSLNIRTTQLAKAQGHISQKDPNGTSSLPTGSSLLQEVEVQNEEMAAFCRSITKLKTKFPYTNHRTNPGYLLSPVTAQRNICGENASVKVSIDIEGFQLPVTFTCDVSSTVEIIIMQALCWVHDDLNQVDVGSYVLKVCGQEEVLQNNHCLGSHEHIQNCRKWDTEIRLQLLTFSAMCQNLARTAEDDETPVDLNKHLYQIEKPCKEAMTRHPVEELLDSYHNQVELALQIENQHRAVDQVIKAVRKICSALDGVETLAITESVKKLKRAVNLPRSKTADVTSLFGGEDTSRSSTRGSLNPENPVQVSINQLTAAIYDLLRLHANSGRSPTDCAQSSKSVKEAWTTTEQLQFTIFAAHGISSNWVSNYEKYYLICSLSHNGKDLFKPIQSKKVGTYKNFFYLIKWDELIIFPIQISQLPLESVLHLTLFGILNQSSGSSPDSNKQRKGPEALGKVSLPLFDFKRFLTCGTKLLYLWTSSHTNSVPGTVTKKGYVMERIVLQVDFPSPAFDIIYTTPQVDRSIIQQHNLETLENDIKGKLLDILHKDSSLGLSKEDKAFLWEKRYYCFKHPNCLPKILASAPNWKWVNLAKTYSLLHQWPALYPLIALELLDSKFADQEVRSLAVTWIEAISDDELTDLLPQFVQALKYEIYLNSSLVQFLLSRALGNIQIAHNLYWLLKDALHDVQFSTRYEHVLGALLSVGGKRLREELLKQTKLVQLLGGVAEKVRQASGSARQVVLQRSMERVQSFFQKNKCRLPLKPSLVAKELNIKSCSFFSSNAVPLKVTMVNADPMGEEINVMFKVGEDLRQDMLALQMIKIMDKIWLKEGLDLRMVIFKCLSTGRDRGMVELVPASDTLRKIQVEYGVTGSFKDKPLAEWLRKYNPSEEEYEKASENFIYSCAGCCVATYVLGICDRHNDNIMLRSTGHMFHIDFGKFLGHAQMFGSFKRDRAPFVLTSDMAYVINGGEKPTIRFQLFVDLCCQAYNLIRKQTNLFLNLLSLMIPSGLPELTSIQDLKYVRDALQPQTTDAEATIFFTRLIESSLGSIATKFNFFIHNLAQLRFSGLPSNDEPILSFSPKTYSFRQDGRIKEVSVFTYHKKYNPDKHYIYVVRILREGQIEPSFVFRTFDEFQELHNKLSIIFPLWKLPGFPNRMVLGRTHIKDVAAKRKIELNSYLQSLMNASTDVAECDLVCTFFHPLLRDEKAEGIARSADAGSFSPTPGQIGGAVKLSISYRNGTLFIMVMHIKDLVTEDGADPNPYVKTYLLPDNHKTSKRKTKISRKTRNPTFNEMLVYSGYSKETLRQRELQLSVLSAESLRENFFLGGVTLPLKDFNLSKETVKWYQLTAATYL
Assay: ADP-Glo kinase assay with purified PI3KC2α Δ1-298
Format: biochemical
Conditions: read-out: IC50 (PI3KC2α; ADP-Glo™ assay)
measurement name: IC50 (µM)

1 = O=C(CSc1nc2nccnc2c(=O)n1CCc1cccc(C(F)(F)F)c1)Nc1nccs1 [Example Compound 9]
2 = C[C@@H](c1ccccc1)n1c(SCc2nc3ccccc3[nH]2)nc2nccnc2c1=O [Example Compound 90]
3 = O=c1c2nccnc2nc(SCc2nc3cc(Br)ccc3[nH]2)n1CCc1ccccc1 [Example Compound 72]
Put the listed items above in order, lowest IC50 first. Submit the labels in the order that the ranking request calls for. 1, 2, 3
(1: 1.5 µM, 2: 16 µM, 3: 51 µM)

====

Molecular target: PI3KC2α Δ1-298 (Homo sapiens (Human))
Experiment: ADP-Glo kinase assay with purified PI3KC2α Δ1-298
Format: biochemical
Details: read-out: IC50 (PI3KC2α; ADP-Glo™ assay)
pIC50: −log10 of the molar value.
measurement name: pIC50

Example entries begin here.
O=c1c2nccnc2nc(SCc2nc3ccccc3o2)n1CCc1ccccc1 5.24
CS(=O)(=O)Nc1ccc(-c2csc(NC(=O)CSc3nc4nccnc4c(=O)n3CCc3ccccc3)n2)cc1 5.77
CS(=O)(=O)c1ccc(-c2csc(NC(=O)CSc3nc4nccnc4c(=O)n3CCc3ccccc3)n2)cc1 5.89
O=C(CSc1nc2nccnc2c(=O)n1CCC1CCCCC1)Nc1nccs1 6.23
O=C(CSc1nc2nccnc2c(=O)n1-c1ccccc1)Nc1nccs1 5.18
CS(=O)(=O)Nc1cccc(-c2csc(NC(=O)CSc3nc4nccnc4c(=O)n3CCc3ccccc3)n2)c1 6.89
O=C(CSc1nc2nccnc2c(=O)n1CCc1cccs1)Nc1nccs1 5.96
O=C(CSc1nc2nccnc2c(=O)n1CCc1ccccc1)Nc1nccs1 7.00

A = COC(=O)[C@H]1C[C@H](n2c(SCc3nc4ccccc4[nH]3)nc3nccnc3c2=O)C1
B = Cc1nc(CSc2nc3nccnc3c(=O)n2CCc2ccccc2)[nH]c1C
C = O=C(CSc1nc2nccnc2c(=O)n1CCc1ccccc1)Nc1nc(-c2ccsc2)cs1
D = O=C(CSc1nc2nccnc2c(=O)n1CCc1ccccc1)Nc1ccccc1
Rank entries according to their pIC50, from the largest number down. Submit the labels in the order that the ranking request calls for. A, C, D, B
(A: 6.49, C: 6.12, D: 5.48, B: 4.64)

====

Molecular target: PI3KC2α Δ1-298 (Homo sapiens (Human))
Experiment: ADP-Glo kinase assay with purified PI3KC2α Δ1-298
Format: biochemical
Details: read-out: IC50 (PI3KC2α; ADP-Glo™ assay)
measurement name: IC50 (µM)

molecule	unit of measurement	IC50
COc1cccc(-c2csc(NC(=O)CSc3nc4nccnc4c(=O)n3CCc3ccccc3)n2)c1 [Example Compound 31]	µM	2.4
CNC(=O)c1ccc(-n2c(SCc3nc4ccccc4[nH]3)nc3nccnc3c2=O)cc1 [Example Compound 82]	µM	0.61

A = C[C@@H](c1ccccc1)n1c(SCC(=O)Nc2nccs2)nc2nccnc2c1=O [Example Compound 89]
B = Nc1cccc(-c2csc(NC(=O)CSc3nc4nccnc4c(=O)n3CCc3ccccc3)n2)c1 [Example Compound 59]
Hi team, can someone confirm which has the larger IC50: A or B ? Thanks. Which one? Tell me its label. A

====

Target: PI3KC2α Δ1-298 (Homo sapiens (Human), UniProt O00443)
Assay: ADP-Glo kinase assay with purified PI3KC2α Δ1-298
Assay type: biochemical
Settings: read-out: IC50 (PI3KC2α; ADP-Glo™ assay)
pIC50: −log10 of the molar value.
measurement name: pIC50

a = O=C(CSc1nc2nccnc2c(=O)n1Cc1ccco1)Nc1nccs1 [Example Compound 32]
b = O=C(CSc1nc2nccnc2c(=O)n1CCc1ccccc1)Nc1nc(-c2ccc(Cl)cc2)cs1 [Example Compound 49]
c = O=c1c2nccnc2nc(SCc2nc3cc(Cl)ccc3[nH]2)n1CCc1ccccc1 [Example Compound 69]
Could you please sort these 3 entries by pIC50 from high to low? Submit the labels in the order that the ranking request calls for. a, b, c

P = O=c1[nH]c(CSc2nc3nccnc3c(=O)n2CCc2ccccc2)nc2ccccc12 [Example Compound 67]
Q = O=C(CSc1nc2nccnc2c(=O)n1CCc1cccc(F)c1)Nc1nc(-c2ccc(F)cc2)cs1 [Example Compound 6]
R = Cc1ccc(-c2csc(NC(=O)CSc3nc4nccnc4c(=O)n3CCc3ccccc3)n2)s1 [Example Compound 30]
S = O=C(CSc1nc2nccnc2c(=O)n1CCc1ccccc1)Nc1nc(C(=O)N2CCOCC2)cs1 [Example Compound 25]
T = CS(=O)(=O)N(c1cccc(-c2csc(NC(=O)CSc3nc4nccnc4c(=O)n3CCc3ccccc3)n2)c1)S(C)(=O)=O [Example Compound 55]
Rank entries according to their pIC50, from the largest number down. Submit the labels in the order that the ranking request calls for. T, Q, P, S, R
(T: 6.70, Q: 6.21, P: 5.72, S: 5.46, R: 5.24)

====

Molecular target: PI3KC2α Δ1-298 (Homo sapiens (Human))
Assay: ADP-Glo kinase assay with purified PI3KC2α Δ1-298
Type: biochemical
measurement name: PI3KC2α inhibitory activity (in words, SAR)

compound	recorded result
O=C(CSc1nc2nccnc2c(=O)n1CCc1ccccc1)Nc1ncc(Br)s1 [Example Compound 29]	functional compounds
O=C(CSc1nc2nccnc2c(=O)n1CCc1cccc(F)c1)Nc1nc(-c2ccc(F)cc2)cs1 [Example Compound 6]	functional compounds
O=C(CSc1nc2nccnc2c(=O)n1CCc1ccccc1)Nc1nc(-c2ccccc2)cs1 [Example Compound 10]	functional compounds

====

Target: PI3KC2α Δ1-298 (Homo sapiens (Human), UniProt O00443)
Test: ADP-Glo kinase assay with purified PI3KC2α Δ1-298
Type: biochemical
Conditions: read-out: IC50 (PI3KC2α; ADP-Glo™ assay)
pIC50: −log10 of the molar value.
measurement name: pIC50

Example entries begin here.
COC(=O)c1ccc2[nH]c(CSc3nc4nccnc4c(=O)n3CCc3ccccc3)nc2c1 5.59
O=c1c2nccnc2nc(SCc2ncc[nH]2)n1CCc1ccccc1 4.66
CNC(=O)c1ccc(-n2c(SCC(=O)Nc3nccs3)nc3nccnc3c2=O)cc1 6.21

I = O=c1c2nccnc2nc(SCc2nc3ccccc3[nH]2)n1C1Cc2ccccc2C1
II = Cn1c(=O)c2nc(CSc3nc4nccnc4c(=O)n3CCc3ccccc3)[nH]c2n(C)c1=O
Hi team, can someone confirm which has the larger pIC50: I or II ? Thanks. Which one? Tell me its label. I

a = O=C(CSc1nc2nccnc2c(=O)n1C1Cc2ccccc2C1)Nc1nccs1
b = CS(=O)(=O)c1ccc(-n2c(SCC(=O)Nc3nccs3)nc3nccnc3c2=O)cc1
# min-compare on pIC50 between a and b Which one? Tell me its label. b
